We begin with a simple list: items and their reported Bliss excess.
Test system: RD (Rhabdomyosarcoma)
protocol-details: Bliss excess, mean over the matrix (fraction); higher = more synergy;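 further: after 72 h of two-drug dosing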
Provide a numeric answer; units are not to be included.

A selection of reference data follows.
compound="COc1cccc(OCCCN)c1-c1cc(Nc2cnc(C#N)cn2)n[nH]1 [Prexasertib] + CN(C)CCCOc1ccc(-c2ccc3ncc4c(c3c2)n(C2CCOCC2)c(=O)n4C)cn1 [AZD0156] (first compound max 1 µM, 7x7, partner max 1 µM)" test_system="RD (Rhabdomyosarcoma)" obs_value=-0.0008
compound="COc1cc2ncnc(Nc3ccc(F)c(Cl)c3)c2cc1OCCCN1CCOCC1 [Gefitinib] + CC(C)n1c(=O)n(C)c2cnc3cc(F)c(-c4ccc(OCCCN5CCCCC5)nc4)cc3c21 [AZD1390] (first compound max 10 µM, 7x7, partner max 0.3 µM)" test_system="RD (Rhabdomyosarcoma)" obs_value=-0.0699

(Q) For the compound Cc1c2c(nn1C)CSCc1cc(n(C)n1)CSc1cc(c3ccccc3c1)OCCCc1c(C(=O)O)n(C)c3c-2c(Cl)ccc13 [AZD5991] + C=CCn1c(=O)c2cnc(Nc3ccc(N4CCN(C)CC4)cc3)nc2n1-c1cccc(C(C)(C)O)n1 [AZD1775] (first compound max 1 µM, partner max 1 µM) , give its reported Bliss excess.
(A) 0.04

(Q) Name the recorded Bliss excess of the item COc1nnc2ccc(N3CCC(c4ccc(OCCN5CCN(C)C(=O)[C@H]5C)cc4)CC3)nn12 [AZD5153] + Cn1cnc2c(F)c(Nc3ccc(Br)cc3Cl)c(C(=O)NOCCO)cc21 [Selumetinib] (first compound max 1 µM, 7x7, partner max 10 µM) in your answer.
(A) 0.0333
